# system_name: c-KIT kinase (Homo sapiens (Human), UniProt P10721)
# Sequence (P10721 26-976): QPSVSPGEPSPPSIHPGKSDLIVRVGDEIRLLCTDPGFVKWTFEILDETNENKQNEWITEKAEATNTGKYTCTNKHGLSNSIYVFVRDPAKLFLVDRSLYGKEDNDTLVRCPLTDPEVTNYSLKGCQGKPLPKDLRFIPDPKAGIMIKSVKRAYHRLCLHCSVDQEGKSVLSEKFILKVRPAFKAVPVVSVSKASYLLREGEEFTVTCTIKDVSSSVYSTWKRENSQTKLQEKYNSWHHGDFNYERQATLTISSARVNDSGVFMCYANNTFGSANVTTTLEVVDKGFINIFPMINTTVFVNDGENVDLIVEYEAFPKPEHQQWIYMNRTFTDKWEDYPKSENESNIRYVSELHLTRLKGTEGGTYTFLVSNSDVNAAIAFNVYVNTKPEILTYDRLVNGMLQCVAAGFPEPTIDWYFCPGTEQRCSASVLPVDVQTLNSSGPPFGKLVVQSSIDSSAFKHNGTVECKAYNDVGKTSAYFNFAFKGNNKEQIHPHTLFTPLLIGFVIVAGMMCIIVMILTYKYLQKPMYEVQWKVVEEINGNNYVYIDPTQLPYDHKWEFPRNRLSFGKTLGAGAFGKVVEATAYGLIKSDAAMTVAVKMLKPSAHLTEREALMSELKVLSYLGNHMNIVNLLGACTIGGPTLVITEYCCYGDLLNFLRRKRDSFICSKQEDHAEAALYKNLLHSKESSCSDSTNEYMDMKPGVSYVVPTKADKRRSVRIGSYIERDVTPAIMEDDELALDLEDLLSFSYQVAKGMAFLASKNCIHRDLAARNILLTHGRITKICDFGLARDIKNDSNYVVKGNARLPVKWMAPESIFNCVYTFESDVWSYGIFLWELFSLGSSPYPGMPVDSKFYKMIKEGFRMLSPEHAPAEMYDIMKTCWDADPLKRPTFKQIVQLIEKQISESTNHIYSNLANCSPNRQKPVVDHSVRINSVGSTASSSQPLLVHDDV
# assay_info: c-KIT kinase assay (radiometric)
# Assay type: biochemical
# condition_info: class symbol
# Procedure: Inhibition of c-KIT kinase activity by a test compound disclosed herein was estimated by radiometric assay. […] The plate was sealed and counted using a TopCount scintillation detector (PerkinElmer). […] The IC50 values of quinoxaline compounds of this invention against c-KIT kinase were determined using the GraphPad Prism 5 software. […]
pIC50: −log10 of the molar value.
Overview of recorded pIC50 for various molecules

> print(dat)
                                   molecule  readout  value.observed
1  COc1cc(Nc2ccc3ncc(N4CCOCC4)nc3c2C#N)cnc1OCc1ccc(C)nc1 [Example 143]    pIC50    6.00 to 6.52
2  COc1ccc(COc2ccc(Nc3ccc4ncc(N5CCC(N(C)C)CC5)nc4c3C#N)cc2OC)cn1 [Example 82]    pIC50    6.52 to 7.00
3  COc1ccc(COc2ccc(Nc3ccc4ncc(N(C)C)nc4c3C#N)cc2OC)cc1 [Example 7]    pIC50          > 7.00

Query: State the recorded pIC50 for this entry: COc1cc(Nc2ccc3ncc(N4CCOCC4)nc3c2C#N)ccc1OCc1cccc(F)c1 [Example 91]
Result: 6.52 to 7.00

Query: State the recorded pIC50 for this entry: COc1cc(Nc2ccc3ncc(N4CCOCC4)nc3c2C#N)ccc1OCc1ccncc1 [Example 46]
Result: 6.52 to 7.00

Query: State the recorded pIC50 for this entry: COc1cc(Nc2ccc3ncc(N4CCOCC4)nc3c2C#N)ccc1OCc1cnc(C)nc1 [Example 128]
Result: 6.00 to 6.52

Source: patent US10689362B2
